Test system: ear sebaceous glands
Assay: lipid (sebum) synthesis in ear sebaceous glands of androgen-stimulated female hamsters, ear biopsies incubated with radioactive acetate
Type: in vivo, hamster
Details: Mesocricetus auratus, dose 100 μg per day; androgen-stimulated female hamsters; percentages may rise over 100%
recordedEndpoint: inhibition in vivo at 100 µg/day
Write the numeric value and append its unit.

Worked cases, answers included:
COc1ccc(C(=O)OCCn2ccnc2)cc1 | 83%
CC(C)(C)C(=O)OCCn1ccnc1 | 72%
CCCC(=O)OCCn1ccnc1 | 106%
O=C(C=Cc1ccccc1)OCCn1ccnc1 | 59%

Lab note: next molecule to report on.
Asked: Can you look up inhibition in vivo at 100 µg/day on ear sebaceous glands for `CCCCCCCCCCCCCCCC(=O)OCCn1ccnc1` ?
Given back: 44%

----------
Test system: ear sebaceous glands
Test: lipid (sebum) synthesis in ear sebaceous glands of androgen-stimulated female hamsters, ear biopsies incubated with radioactive acetate
Format: in vivo, hamster
Settings: Mesocricetus auratus, dose 100 μg per day; androgen-stimulated female hamsters; percentages may rise over 100%
The following compounds are listed with their measured inhibition in vivo at 100 µg/day values.
Number in %, nothing else.

Worked cases, answers included:
CC(C)(C)c1ccc(C(=O)OCCn2ccnc2)cc1 | 67
O=C(OCCn1ccnc1)c1cccs1 | 89
O=C(CCc1ccccc1)OCCn1ccnc1 | 76
CC(=O)OCCn1ccnc1 | 82
CC1=C(/C=C/C(C)=C/C=C/C(C)=C/C(=O)OCCn2ccnc2)C(C)(C)CCC1 | 39

Asked: inhibition in vivo at 100 µg/day lookup needed for O=C(OCCn1ccnc1)c1ccccc1 [C6 H5, 2-(1H-imidazol-1-yl)-ethyl benzoate] , thanks.
Given back: 82

Asked: inhibition in vivo at 100 µg/day lookup needed for `O=C(OCCn1ccnc1)c1ccncc1` , thanks.
Given back: 44

Asked: inhibition in vivo at 100 µg/day lookup needed for `Cc1ccc(C(=O)OCCn2ccnc2)cc1` , thanks.
Given back: 91

The measured values listed here are drawn from patent US4710571A.
